tested on: Staphylococcus equorum; assay: Antibacterial activity against Staphylococcus equorum assessed as zone of inhibition at 5 uL and 32 degC after 36 hrs at by disk diffusion method; format: functional
Calls of active or inactive are those of the source. The rule behind the calls is not given here.

{"Entry smiles": "CC(C)CCC[C@@H](C)[C@H]1CC[C@H]2C3=CC[C@@H]4C(=O)OC(=O)[C@@H]4[C@@H]3CC[C@]12C", "diameter of the inhibition zone (DIZ)": "inactive"}
{"Entry smiles": "CC(C)CCC[C@@H](C)[C@H]1CC[C@H]2C3=CCn4c(=O)c5ccccc5c(=O)n4[C@@H]3CC[C@]12C", "diameter of the inhibition zone (DIZ)": "inactive"}
{"Entry smiles": "CC(C)CCC[C@@H](C)[C@H]1CC[C@H]2C(/C=C/CO)=CCC[C@]12C", "diameter of the inhibition zone (DIZ)": "12 mm"}
{"Entry smiles": "CC(C)CCC[C@@H](C)[C@H]1CC[C@H]2C(C#CCCO)=CCC[C@]12C", "diameter of the inhibition zone (DIZ)": "6 mm"}

---

test system: Staphylococcus equorum; assay: Antibacterial activity against Staphylococcus equorum assessed as zone of inhibition at 5 uL and 32 degC after 36 hrs at by disk diffusion method; type: functional
Activity calls are given as the source filed them. No cut-off for these calls is given here.
Parameter: diameter of the inhibition zone (DIZ)

{"Compound": "CC(C)=CCCC1=CCn2c(=O)ccc(=O)n2C1", "Endpoint value": "inactive"}
{"Compound": "CC(C)CCC[C@@H](C)[C@H]1CC[C@H]2C3=CCn4c(=O)n(C)c(=O)n4[C@@H]3CC[C@]12C", "Endpoint value": "10 mm"}
{"Compound": "CC(C)CCC[C@@H](C)[C@H]1CC[C@H]2[C@@H]3CCN4C(=O)CCC(=O)N4[C@@H]3CC[C@]12C", "Endpoint value": "9 mm"}
{"Compound": "CC(C)CCC[C@@H](C)[C@H]1CC[C@H]2C3=CC[C@@H]4C(=O)N(C)C(=O)[C@@H]4[C@@H]3CC[C@]12C", "Endpoint value": "inactive"}
{"Compound": "CC(C)CCC[C@@H](C)[C@H]1CC[C@H]2C3=CC[C@@H]4C(=O)NC(=O)[C@@H]4[C@@H]3CC[C@]12C", "Endpoint value": "14 mm"}
{"Compound": "CC(C)CCC[C@@H](C)[C@H]1CC[C@H]2C3=CC[C@@H]4C(=O)C=CC(=O)[C@@H]4[C@@H]3CC[C@]12C", "Endpoint value": "inactive"}
{"Compound": "CCN1C(=O)[C@H]2[C@H](CC=C3[C@H]2CC[C@]2(C)[C@@H]([C@H](C)CCCC(C)C)CC[C@@H]32)C1=O", "Endpoint value": "8 mm"}
{"Compound": "CC(C)CCC[C@@H](C)[C@H]1CC[C@H]2C(CCCCN3C(=O)C=CC3=O)CCC[C@]12C (mixture of isomers)", "Endpoint value": "11 mm"}
